Procedure text: Cytotoxicity against PHA-stimulated human PBL assessed as inhibition of cell growth
Type: cell-based
Measurement conditions: PHA-stimulated peripheral blood lymphocytes (PBL)
Reported metric: GI50

Query: Could you tell me which GI50 is on file for COc1cc(C(=O)c2c(N)oc3cc(C)ccc23)cc(OC)c1OC ?
Reply: > 10 µM

Query: Could you tell me which GI50 is on file for CCOc1ccc2c(C(=O)c3cc(OC)c(OC)c(OC)c3)c(N)oc2c1 ?
Reply: > 10 µM

----------
Assign inhibition to each entry below.
Species: Bos taurus
Procedure text: Inhibition of [3H]colchicine binding to bovine brain tubulin at 5 uM relative to control

Query: Could you tell me which inhibition is on file for CCCOc1ccc2c(C(=O)c3cc(OC)c(OC)c(OC)c3)c(N)oc2c1 ?
Reply: 91%

Query: Could you tell me which inhibition is on file for COc1ccc2oc(N)c(C(=O)c3cc(OC)c(OC)c(OC)c3)c2c1 ?
Reply: 73%

Query: Could you tell me which inhibition is on file for COc1cc(C(=O)c2c(N)oc3c(O)c(OC)ccc23)cc(OC)c1OC ?
Reply: 99%

Query: Could you tell me which inhibition is on file for COc1cc(C(=O)c2c(N)oc3cc(Br)ccc23)cc(OC)c1OC ?
Reply: 92%

Query: Could you tell me which inhibition is on file for CCOc1ccc2c(C(=O)c3cc(OC)c(OC)c(OC)c3)c(N)oc2c1 ?
Reply: 99%

Query: Could you tell me which inhibition is on file for COc1ccc(/C=C\c2cc(OC)c(OC)c(OC)c2)cc1O ?
Reply: 97%

Query: Could you tell me which inhibition is on file for COc1cc(C(=O)c2c(N)oc3cc(C)ccc23)cc(OC)c1OC ?
Reply: 97%

Query: Could you tell me which inhibition is on file for COc1ccc2c(C(=O)c3cc(OC)c(OC)c(OC)c3)c(N)oc2c1 ?
Reply: 99%
